- Test system: DMS-114 complex spheroids with HUVEC/MSC, growth % test/control
- EXPERIMENTAL_PROTOCOL: Anticancer human tumor DMS-114 cell line growth inhibition [AhR];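 also: spheroids exposed to agents for 7 days before readout; 100% = DMSO vehicle control wells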
- TEST_SETTINGS: second compound 10 µM; first compound 0.0316 µM; stronger effect = lower value
Would you kindly list viability, T/C for each of these molecules?

Can you look up the measured viability, T/C of O=C(C=Cc1cccc(S(=O)(=O)Nc2ccccc2)c1)NO + Cc1ccccc1N=Nc1ccc(NC(=O)c2ccnn2C)c(C)c1 for me?
88.7%

Can you look up the measured viability, T/C of Nc1ccccc1NC(=O)c1ccc(CNC(=O)OCc2cccnc2)cc1 + CC(CO)NC(=O)c1cc(-c2ccc(Cl)cc2)nn(-c2cnn(C)c2)c1=O for me?
90%

Can you look up the measured viability, T/C of COc1cc(C2c3cc4c(cc3C(OC3OC5COC(C)OC5C(O)C3O)C3COC(=O)C23)OCO4)cc(OC)c1O (centres undefined) + Cc1ccccc1N=Nc1ccc(NC(=O)c2ccnn2C)c(C)c1 for me?
90.7%

Can you look up the measured viability, T/C of Nc1ccn(C2OC(CO)C(O)C2(F)F)c(=O)n1 (centres undefined) + Cc1ccccc1N=Nc1ccc(NC(=O)c2ccnn2C)c(C)c1 for me?
29.2%
